All values here come from patent US20230348603A1.

# measuredOn: T1, Human VSIG4-L-CHO (human VSIG4 long isoform on CHO-K1 cells) (human, UniProt Q9Y279 20-399)
# T1 construct: also called hVSIG4-L (flow cytometry)
# T1 sequence: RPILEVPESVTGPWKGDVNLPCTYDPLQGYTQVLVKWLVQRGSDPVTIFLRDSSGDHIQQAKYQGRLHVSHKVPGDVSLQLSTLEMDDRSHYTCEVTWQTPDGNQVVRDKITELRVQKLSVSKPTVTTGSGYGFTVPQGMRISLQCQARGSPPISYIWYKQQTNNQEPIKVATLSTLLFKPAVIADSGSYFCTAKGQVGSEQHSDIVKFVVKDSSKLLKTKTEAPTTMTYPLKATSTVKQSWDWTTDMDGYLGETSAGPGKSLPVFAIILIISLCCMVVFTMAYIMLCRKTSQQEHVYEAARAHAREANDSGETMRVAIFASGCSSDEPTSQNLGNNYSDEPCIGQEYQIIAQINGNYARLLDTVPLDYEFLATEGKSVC
# assayText: flow cytometry (FJB), 200 nM mAb, huVSIG4-L CHO-K1 over parental CHO-K1
As shown below, each of these binders has a reported Binding (200 nM) Fold-Over-Parental value.
observable: Binding (200 nM) Fold-Over-Parental

binder	observed
16G02 mouse/human chimeric IgG4 (S228P) kappa (antibody, V domains shown) VH: QVQLQQSGAELMKPGASVKISCKATGYTFSSYWIEWVKQRPGHGLEWIGEILPGSSTTNYNEKFKGKATFTADTSSNTAYMQLSSLTSEDSAVYYCAREDHFITTARYAMDYWGQGTSVTVSS VL: DIVLTQSPASLAMSVGQKVTMSCKSSQSLLNSSNQKNYLAWYQQKPGQSPKLLLYFASTRESGVPDRFIGSGSGTDFTLTISSVQAEDLADYFCQQHYSNPLTFGAGTKLELKR	130 fold
12A12 mouse/human chimeric IgG4 (S228P) kappa (antibody, V domains shown) VH: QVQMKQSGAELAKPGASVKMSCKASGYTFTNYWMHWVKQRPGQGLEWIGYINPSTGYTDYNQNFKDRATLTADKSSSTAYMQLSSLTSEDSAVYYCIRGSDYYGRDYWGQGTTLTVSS VL: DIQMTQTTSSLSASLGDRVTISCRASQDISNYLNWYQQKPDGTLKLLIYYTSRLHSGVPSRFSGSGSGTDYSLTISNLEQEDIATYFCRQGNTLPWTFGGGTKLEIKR	291 fold
15C03 mouse/human chimeric IgG4 (S228P) kappa (antibody, V domains shown) VH: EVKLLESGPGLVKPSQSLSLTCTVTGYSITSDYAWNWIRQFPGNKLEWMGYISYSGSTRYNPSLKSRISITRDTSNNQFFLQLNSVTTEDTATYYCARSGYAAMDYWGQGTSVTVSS VL: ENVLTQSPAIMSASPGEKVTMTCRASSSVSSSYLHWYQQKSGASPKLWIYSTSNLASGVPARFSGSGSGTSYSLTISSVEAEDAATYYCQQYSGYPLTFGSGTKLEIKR	83 fold
